Just for reference, patent US20240415914A1 is where these values come from.

Assay: Stability of cannabinoid and Vitamin E components of Beverage 2 (AB Red) stored at 8° C. and 21-25° C., LCMSMS over 570 days
Conditions: 8° C., 240 days
Listed next: entries and their corresponding Stability of Cannabinoids in AB Red.
Reply with just the number (in µg/mL).

INPUT: Identify measured Stability of Cannabinoids in AB Red corresponding to CCCCCc1cc2c(c(O)c1C(=O)O)[C@@H]1C=C(C)CC[C@H]1C(C)(C)O2 [D9 THCA, delta-9-tetrahydrocannabinolic acid]
OUTPUT: 1.32

INPUT: Quote Stability of Cannabinoids in AB Red reported for C=C(C)[C@@H]1CCC(C)=C[C@H]1c1c(O)cc(CCC)cc1O please.
OUTPUT: 0.192

INPUT: Read off the recorded Stability of Cannabinoids in AB Red for CCCCCc1cc(O)c2c(c1)OC(C)(CCC=C(C)C)C=C2 (stereo not drawn)
OUTPUT: 0.280

INPUT: // fetch Stability of Cannabinoids in AB Red given entry CCCCCc1cc(O)c2c(c1)OC1(C)CCC3C1C2C3(C)C (stereo not drawn)
OUTPUT: 0.490

INPUT: Identify the reported Stability of Cannabinoids in AB Red for the following entry. CCCCCc1cc(O)c2c(c1)OC(C)(C)[C@@H]1CCC(C)=C[C@@H]21 [D9 THC, delta-9-tetrahydrocannabinol, reference compound]
OUTPUT: 12.4

INPUT: State its Stability of Cannabinoids in AB Red: CCCc1cc(O)c2c(c1)OC(C)(C)[C@@H]1CCC(C)=C[C@@H]21 [THCV, delta-9-tetrahydrocannabivarin]
OUTPUT: 3.08

INPUT: # return recorded Stability of Cannabinoids in AB Red for entry CCCCCc1cc(O)c2c(c1)OC(C)(C)c1ccc(C)cc1-2
OUTPUT: 2.74

INPUT: Specify reported Stability of Cannabinoids in AB Red for the molecule shown: CCCCCc1cc(O)c(C/C=C(\C)CCC=C(C)C)c(O)c1
OUTPUT: 4.68

INPUT: Give the reported Stability of Cannabinoids in AB Red for this molecule. C=C(C)[C@@H]1CCC(C)=C[C@H]1c1c(O)cc(CCCCC)c(C(=O)O)c1O
OUTPUT: 1.66

====

Test: Stability of cannabinoid and Vitamin E components of Beverage 1 (AB White) stored at 8° C. and 21-25° C., LCMSMS over 570 days
Format: physicochemical
Conditions: beverage stored at 8° C., day 2
Stability in AB White, 8° C. (content by LCMSMS) for assorted molecules
The figure you give is taken to be in µg/mL; do not add the unit.

Would you please look over these solved cases?
molecule	observedValue
C=C(C)[C@@H]1CCC(C)=C[C@H]1c1c(O)cc(CCC)cc1O	0.147
CCCCCc1cc(O)c2c(c1)OC(C)(C)[C@@H]1CCC(C)=C[C@@H]21 [D9 THC, delta-9-tetrahydrocannabinol, reference compound]	11.91
CCCc1cc(O)c2c(c1)OC(C)(C)[C@@H]1CCC(C)=C[C@@H]21 [THCV, delta-9-tetrahydrocannabivarin]	3.60
C=C(C)[C@@H]1CCC(C)=C[C@H]1c1c(O)cc(CCCCC)cc1O [CBD, cannabidiol, reference compound]	27.67
CCCCCc1cc(O)c(C/C=C(\C)CCC=C(C)C)c(O)c1	4.91
CCCCCc1cc(O)c2c(c1)OC(C)(C)c1ccc(C)cc1-2	2.72

INPUT: Entry CCCCCc1cc2c(c(O)c1C(=O)O)[C@@H]1C=C(C)CC[C@H]1C(C)(C)O2 [D9 THCA, delta-9-tetrahydrocannabinolic acid] needs its Stability in AB White, 8° C. (content by LCMSMS) filled in; supply it.
OUTPUT: 0.954
